- Tested on: Leishmania donovani
- Test Protocol: GSK_TCAKS: pIC50 Leishmania donovani viability assay using fluorescence intensity. Assay plates (1536-well) were prepared by adding 30nL per well of compound. For single shot assay, the final compound concentration was 5uM. […] Briefly, eGFP LdBOB axenic amastigotes were harvested, fixed and counted in a CASY cell counter (Roche-Applied Science). A final concentration of 1.5 * 10^5 cells per well were prepared in amastigote media containing 500 U/mL penicillin/streptomycin (Invitrogen) and 6uL was dispensed to each experimental well using a Multidrop Combi dispenser (Thermo Scientific). 6uL of assay media was dispensed to control columns used as reference for 100% compound response. Following incubation for 72 h at 37C, 5% CO2, 2 uL of resazurin was added to each well at a final concentration of 0.5 mM in phosphate buffered saline (PBS) with IGEPAL (Sigma-Aldrich), 0.05% (v/v).
- Type: functional, organism-based
Assay Metric: log10 IC50 (log10 of the value in µM)
A value of 2 here means IC50 of 100 in µM, since values are log10.

Molecule	Target System	Readout Number
COc1ccc(-c2cnc(NC(=O)c3cc(-c4ccccn4)n[nH]3)n2C)cc1	Leishmania donovani	0.60
Cc1nc(N2CC(C)OC(C)C2)sc1C(=O)Nc1ccc2c(c1)OCO2 (stereo not given)	Leishmania donovani	0.80
c1ccc2[nH]c(-c3ccc(N4CCCC4)nc3)nc2c1	Leishmania donovani	0.70

Kindly note the recorded log10 IC50 for `Cc1cc(Nc2cc(C3CC3)[nH]n2)nc(N2CCCC2)n1` , which is -0.10

Kindly note the recorded log10 IC50 for CC(c1ccc2c(c1)CCCC2)N(C)c1ncc2c(N)nc(N)nc2n1 (stereo not given) , which is 0.40

Kindly note the recorded log10 IC50 for `CN(C)Cc1cccc(Nc2nccc(-c3ccc(NCCN)c(C#N)c3)n2)c1` , which is 0.40

Kindly note the recorded log10 IC50 for CC1=C(C(=O)Nc2ccc(Cl)cc2)C(c2ccncc2)n2ncc(C(=O)Nc3ccccc3)c2N1 (stereo not given) , which is -0.90

Kindly note the recorded log10 IC50 for `O=C(Nc1nc2ccccc2[nH]1)c1ccc2[nH]cnc2c1` , which is 0.40

Kindly note the recorded log10 IC50 for `NS(=O)(=O)c1ccc(CNC(=O)c2ccc([N+](=O)[O-])s2)cc1` , which is 1.50

---

The compounds listed here are annotated with their log10 IC50.
- System: Trypanosoma cruzi
- Test Protocol: GSK_TCAKS: pIC50 Trypanosoma cruzi viability assay using beta-GAL activity. This assay was run at single shot at 5uM compound concentration per well. The biological reagents consisted of NIH-3T3 host cells and trypomastigotes parasitic cells; both cell types were set to a 3.3 * 10^5 cells/mL dilution in assay DMEM by means of a CASY cell counter device using a 60um capillary. 6 uL of the mixture were dispensed per well (about 1 * 10^3 host-cells and 1 * 10^3 parasites) with a Multidrop Combi dispenser. […] In all wells, the percentage of DMSO never exceeded 0.5%. Plates incubated for four days at 37C, 5% CO2. The substrate used for the assay fluorescence intensity (FLINT) readout was resorufin-beta-D-galactopiranoside (Sigma-Aldrich) at 5uM per well. It was diluted in PBS supplemented with the soft detergent Igepal (Fluka).
- Type: functional, organism-based, Mus musculus
- Measurement Setup: Tulahuen, NIH3T3
A value of 2 here means IC50 of 100 in nM, since values are log10.

Kindly note the recorded log10 IC50 for `O=[N+]([O-])c1ccc(-c2nnn(-c3cccnc3)n2)o1` , which is 2.40

Kindly note the recorded log10 IC50 for `CC(C)Oc1cccc(N2CCC(C(=O)N3CCCN(C(C)C)CC3)CC2)c1` , which is 3.10

Kindly note the recorded log10 IC50 for `N#Cc1cnc(Nc2cccc(CCN3CCOCC3)c2)nc1Nc1ccccc1C(N)=O` , which is 3.10

Kindly note the recorded log10 IC50 for `CN(C)Cc1cccc(Nc2nccc(-c3ccc(NCCN)c(C#N)c3)n2)c1` , which is 3.00

Kindly note the recorded log10 IC50 for `Cc1cc(C)nc(N2CCC(N(Cc3cccnc3)C(=O)c3cccc(C#N)c3)CC2)n1` , which is 2.50

Kindly note the recorded log10 IC50 for `CN(CCOc1ccc(Cl)cc1)Cc1nc(N)nc(N(C)C)n1` , which is 3.70

---

- Tested on: Trypanosoma cruzi
- Test Protocol: GSK_TCAKS: pIC50 Trypanosoma cruzi viability assay using beta-GAL activity. This assay was run at single shot at 5uM compound concentration per well. The biological reagents consisted of NIH-3T3 host cells and trypomastigotes parasitic cells; both cell types were set to a 3.3 * 10^5 cells/mL dilution in assay DMEM by means of a CASY cell counter device using a 60um capillary. 6 uL of the mixture were dispensed per well (about 1 * 10^3 host-cells and 1 * 10^3 parasites) with a Multidrop Combi dispenser. […] In all wells, the percentage of DMSO never exceeded 0.5%. Plates incubated for four days at 37C, 5% CO2. The substrate used for the assay fluorescence intensity (FLINT) readout was resorufin-beta-D-galactopiranoside (Sigma-Aldrich) at 5uM per well. It was diluted in PBS supplemented with the soft detergent Igepal (Fluka).
- Type: functional, organism-based, Mus musculus
- Measurement Setup: Tulahuen, NIH3T3
The compounds listed here are annotated with their IC50.
Just so you know, I need the unit written after the number.

Worked set:
Substance Smiles	IC50
Cc1cc(C)n(-c2nc(NC(C)(C)C)nc(N3CCOCC3)n2)n1	5.01 µM
CS(=O)(=O)c1ccccc1C(=O)N(Cc1ccccc1)c1ccccc1	50.1 µM
Cc1nn(-c2nc(N)nc(-c3ccccn3)n2)c(N)c1-c1ccccc1	3.98 µM

Kindly note the recorded IC50 for `CCN(CC)S(=O)(=O)c1ccc(Cn2nc(C(=O)Nc3ccncn3)c3ccccc32)cc1` , which is 0.316 µM

---

- Test Protocol: GSK_TCAKS: pIC50 HepG2 human cell line viability assay using luminiscence. […] Seeding density was checked to ensure that new mono-layers were not more than 50% confluent at the time of harvesting. Cell suspension was added to 500 mL of the same medium at a final density of 1.2 * 10^5 cells/mL. This cell suspension was dispensed (25 uL, 3000 cells per well) into 384-well clear-bottom plates using a Multidrop Combi dispenser. Prior to addition of the cell suspension, the screening compounds (250 nL) were pre-dispensed into the plates with an Echo liquid handler. Plates were incubated for 48 h at 37C, 5% CO2. After incubation, plates equilibrated at room temperature for 30 min before proceeding to develop the luminescent signal. The signal developer, CellTiter-Glo Reagent, was allowed to equilibrate at room temperature for 30 min and added to the plates (25uL per well) using a Multidrop Combi dispenser. Plates were left for 10 min at room temperature for stabilization and then read using a ViewLux.
- Type: toxicity, cell-based
The compounds listed here are annotated with their IC50 at 48 h.
Response body: numeric value in µM, unit text excluded.

Kindly note the recorded IC50 at 48 h for `Oc1cccnc1-c1nc(Cc2ccccc2)n[nH]1` , which is 79.4

---

- Tested on: Trypanosoma brucei brucei
- Test Protocol: GSK_TCAKS: pIC50 Trypanosoma brucei viability assay using luminiscence. Assay plates (1536-well) were prepared. T. brucei cultures were harvested and counted in a CASY cell counter. A parasite suspension was prepared at a final concentration of 5 * 10^4 cells/mL in complete HMI9 medium and 6uL was dispensed to all wells containing compounds using a Multidrop Combi dispenser. 6uL of HMI9 media with 0.4% DMSO were dispensed to control columns. Plates were incubated for 24 h at 37C, 5% CO2 then tempered for 10 min at room temperature. ATP content was quantified by adding 4 uL of CellTiter-Glo Reagent (Promega) according to the manufacturer's instructions. Luminescence was measured using a ViewLux.
- Type: functional, organism-based
- Measurement Setup: Lister 427, CASY
pIC50: −log10 of the molar value.
Label label 1 when pIC50 >= 6; otherwise label 0.

Use these answered entries as a reference point.
Molecule	Class
O=C(NCC1CCCCN1C(=O)c1cccc2ccccc12)c1ccccc1 (configuration not stated)	label 1
Cc1nn2c(O)c3c(nc2c1-c1ccc(F)cc1)CCCC3	label 1
O=C(NCCc1csc(-c2cccc(F)c2)n1)c1ccco1	label 1

Is pIC50 at least 6? Consider `O=C(Cn1cnc2cc([N+](=O)[O-])ccc2c1=O)NCCc1ccc(Cl)cc1Cl`
label 0

Is pIC50 at least 6? Consider `COc1ccc([N+](=O)[O-])cc1NC(=O)c1cc(Cl)ccc1O`
label 0

Is pIC50 at least 6? Consider Cc1cn[nH]c1C1CCCN(Cc2nc3ccccc3n2C)C1 (configuration not stated)
label 0

Is pIC50 at least 6? Consider `CN(C)CCOc1ccc(N2CCN(S(=O)(=O)c3ccc(Cl)cc3)CC2)cc1`
label 0

Is pIC50 at least 6? Consider `CC(C)(C)Nc1nc(Nc2ccc3c(c2)CS(=O)(=O)C3)nc2[nH]ccc12`
label 0

Is pIC50 at least 6? Consider `CCn1nccc1CN(C)C(=O)C=Cc1ccc(Cl)cc1`
label 0

Is pIC50 at least 6? Consider `N#Cc1cccc(CN2CCC(c3nc(-c4ccc(C(F)(F)F)nc4)no3)CC2)c1`
label 0

Is pIC50 at least 6? Consider `CS(=O)(=O)N1CCC(Nc2ncc(Br)c(Nc3cccc(F)c3C(N)=O)n2)CC1`
label 1

Is pIC50 at least 6? Consider `CCCCn1c(=O)c2c(N)onc2n(CCCC)c1=O`
label 1

Is pIC50 at least 6? Consider `O=C(NNC(=O)c1ccccn1)c1ccc(-c2ccccc2)cc1`
label 1

Is pIC50 at least 6? Consider CC(=O)Nc1ccc(-c2noc(CC3CCCN(Cc4cccc(F)c4C)C3)n2)cc1 (configuration not stated)
label 0
